ASSAY: yeast display, Sf9 membrane polyspecificity reagent, FACS + sequencing; frameworks hold sequencing errors
MEASURED QUANTITY: polyreactivity (PSR sort gate)

| SEQUENCE CONTENT | RESULT |
| --- | --- |
| QVQLLESGGGLVQAGGSLRLSCAASGYTFQIKAMGWYRQAPGKERELVAAITSGGRTYYADSVKGLFTISRDNAKNTVYLQMNSLKPEDTAVYYCNKVPRRGVDYWGQGTQVTVSS | low polyreactivity |
| QVQLVESGGGLVQAGGSLRLSCAASGRIFETNGMGWYRQAPGKERELVAAITRSGGVRTYADSVKGRFTISRDNAKNTVYLQMNSLKPEDTAVYYCNKRSILGRGTPSPYKRMYHWGQGTQVTVSS | low polyreactivity |

* * *

ASSAY: yeast display, Sf9 membrane polyspecificity reagent, FACS + sequencing; frameworks hold sequencing errors
MEASURED QUANTITY: polyreactivity (PSR sort gate)

| SEQUENCE CONTENT | MEASURED QUANTITY | RESULT |
| --- | --- | --- |
| QVQLVESGGGLVQAGGSLRLSCAASGSISGLYAMGWYRQAPGKESELVAAISFSGGSTYYADSVKGRFTISRDNAKNTVYFQMNSLKPEDTAVYYCAADGQYGGVPNTSEWTFDYWGQGTQVTVSS | polyreactivity (PSR sort gate) | low polyreactivity |
| QVQLVESGGGLVQAGGSLRLSCAASGFILTDNAKGWNRQAPGKERELVAAINSGGSTYYADSVKGRFTISRDNAKNTVYLQMNSLKPEDTEVYYCAADYSTWLRAYDYWGQGTQVTVSS | polyreactivity (PSR sort gate) | low polyreactivity |
| QVQLQESGGCLVQAGGSLRLSCAASGTNLYSLGMGWSRQAPGKRREFVASITWGTTTNYAESENGRFTISRDNAKKTVYPQRNSLKPEDTAVYYCAAPPFGDSSYHYWGQATQVTVSS | polyreactivity (PSR sort gate) | low polyreactivity |
| QVQLVESGGGLVQAGGSLRLSCAASGSTFVLYAMGWYRQAPGKERELVATISSGGSTYYADSVKGRFTISRDNAKNTVYLQMNRLKPEDTAVYYCAASYSRFVDWIGDPGYDYWGQGTQVTVSS | polyreactivity (PSR sort gate) | low polyreactivity |
| QVQLVESGGGLVQAGGSLRLSCAASGRTFGINDMGWYRQAPGKERELVAVIRSGGGITFYADSVKGRFTISRDNAKNTVYLQMTSLKPEDTAVYYCAKTRRDFYDAINGGGPERYDYWGQGTQVTVSS | polyreactivity (PSR sort gate) | low polyreactivity |
| QVQLEESGGGLVQAGGSLRLSCAASGITYYYAMGWYRQAPGKERELVAVITPGVSTNYADSVKGRFTISRDNAKNSVYLHMNSLKPEDTAVYYCATDVQVPCIGRSVYAYEYWGQGTQVTVSS | polyreactivity (PSR sort gate) | low polyreactivity |
| QVQLVESGGGLVQAGGSLRLSCADSGSIFDQYTMGWYRQAPGKERELVAGISSGGITNYADSVKGRFTISRDNAKNTVYLQMNSLKPEDTAVYYCAADNWYLAEYDYWGQGTQVTVSS | polyreactivity (PSR sort gate) | low polyreactivity |
| QVQLVETGGGLVQAGGSLRLSCAASGITFSDNAMGWYIQAPVKERELVADISYGGGNTYYADSVQGRFTISRDNAKYTVYLQMNSLKPEDTAVYYCAAVYYFLWYGYYLALDYWGQGTQVTVSS | polyreactivity (PSR sort gate) | high polyreactivity |
| QVQLVESGGGLVQAGGRLRLTCAASGCTFFTNSMGWYRQAPGKERELFGAITVSGSTYYADSVKGRFTFSRDNAKNTVYLQMNSLNPEDTAVYYCAAVFWRRQYGYYIFTTLDYWGHGTQVTVSS | polyreactivity (PSR sort gate) | high polyreactivity |
| QVQLVESGGGLVQAGGSLRLSCAASGSTFGGYVMGWYRQAPGKERELVAAIRRVGRTYYADSVKGRFTISRDNAKNTVYLQMNSLKPEDTAVYYCAKDNWVNYDDSHDSWGQGTQVTVSS | polyreactivity (PSR sort gate) | low polyreactivity |
| QVQLVESGGGFVQAGGSLRLSSAASGLTFAAYAMGWSRQAPGKERELVASISRRGGSTYYADSVKGRFTISRDNAMNTVYLQMNSLKPEDTAVYYCAARSFWGGLRYDYWGQGTQVTVSS | polyreactivity (PSR sort gate) | high polyreactivity |

* * *

ASSAY: yeast display, Sf9 membrane polyspecificity reagent, FACS + sequencing; frameworks hold sequencing errors

| SEQUENCE CONTENT | polyreactivity (PSR sort gate) |
| --- | --- |
| QVQLVESVGGLVQAGGSLRLTCAASGFTFGPYAMGCYRQAAGKERELVAAITNRGGSTYADSVKGRFTISRDNAKNTVYLQMNSLKPEDTAVYYCATVSALEYNYWGQGTQVTVSS | low polyreactivity |
| QVQLVESGGGLVQAGGSLRLSCAASGSIFAFYAMGRYRQAPGKERELVAAISYNGGSTYYADSVKGRFTISRDNAKNTVYLQMNSLKAEDTAVYYCAAYHFRAPSEYDYWGQGTQVTVSS | low polyreactivity |
| QVQLVESGGGLVQAGGSLRLSFAASGFTFRNYAMGWYRQAPGKERELVAAISTSGGRTYYADSVKGRFTISRDNAKNTVYLEMNSLKPEDTAVYYCNAGSGSYSYRYNYWGQGTQVTVSS | high polyreactivity |
| QVQLVESGGGLVQAGGSLRLSCAASGSTFPYNAMGWYRQAPGKERELVAAITSAGGTNYADSVKGRFTISRDNAKNTVYLQMNSLKPEDTAVYYCAADGSGYYDWYYYWGQGTQVTVSS | low polyreactivity |
| QVQLVESGGGLVQAGGSLRLSCAASGSIFAAYAKGWYIQAPGKERELVAAISDRGGSTYYADSVKGRFTISRDNSKITVYLQMNSLKPEDTAVYYCATSVFDVRGGPFYYWGQGTQVNVSS | high polyreactivity |
| QVQLVESGGGLVQAGGSLRLSCAASGSIFIGNTMGWYRPAPGNERELVATIRRSGSRTYYADSVKGRFTISRDNAKNTVYLQMNSLKPEDTAVYYCAADRLRTSGYKTIYDYWGQGTQVTVSS | low polyreactivity |
| QVQLVESGGGLVQAGGSLRLSCAASGLTFLKYAMGWYRQAPGKERELVAAITGSGGRTYYADSVKGRFTISRDNSKNTVYLHMNSLKPEDTAVYYCAADDYFHDDYWGLGTQVTVSS | high polyreactivity |
| QVQLVESGGGLVQAGGILRLSCAASGRNFVHYAMGWYRQAPGKERELVAAISHSGGRTYYADSVKGRFTMSRDYAQNTVYLQMNSLKPEDTAVYYCNVRGSPAGTGLLDYWGQGTQVTVSS | high polyreactivity |
| QVQLVESGGGLVQAGGSLRLSCATSGRTLGGYAMGWYRHAPGKERELVASITSTSSTYADSVKGRFTISRDNAKNTVYLQMNSLKPEDTAVYYCAADPRRYRGFGYVYGGFYYWGQGTQVTVSS | low polyreactivity |
| QVQLVESGGDLVQAGGSLRLSCAASGRTFSANGMGWYRQAPGKERELVAAITRSGGITYYADSVKGRFTISRDNAKNTVYLQMNSLKPEDTAVYYCAASVYSLSRRSWMDYWGQGTQVTVSS | low polyreactivity |
| QVQHVESGGGLVQAGGSLRLSCAASGSIIDIYAMGWYRQAPGKERELVASISGGAGSTNYADSVKGRFTISRDNAKNSVYLQMNSLKPEDTGVDDFAAVVYVPVYFQHKFDVEYEYWGQGTQVTVSS | low polyreactivity |

* * *

ASSAY: yeast display, Sf9 membrane polyspecificity reagent, FACS + sequencing; frameworks hold sequencing errors
MEASURED QUANTITY: polyreactivity (PSR sort gate)

| SEQUENCE CONTENT | MEASURED QUANTITY | RESULT |
| --- | --- | --- |
| QVQLVESGGGLVQAGGSLRLSCAASGRIFVPYLMGWYRQAPGKERELVASISDSDTSTYYADSVKGRFTISRDNAKNTVYLQMNCLKPEDTAVYYCNVDYWGQGTQVTVSS | polyreactivity (PSR sort gate) | low polyreactivity |
| QVQLVESGGGLVQAGGSLRLSCAASGRIFGYYAMGWYRQAPGKERELVAAISYSTGGTSTYADSVKGRFTISRDNAKNTVYLQMNSLKPDDTAVYYCAKRIFTSARLNYWGQGTQVTVSS | polyreactivity (PSR sort gate) | high polyreactivity |
| QVHLVEAGGGLVQAGGSLRYSCAASGYTFKLYAMGWYRQAPGKESELVAAITSGGSTSFADSVKGRFTISRDNAKNTVYLQMNSLKPEDTAVYYCAKRYSSYRAWYRNVGYYYWGLGTQVTVSS | polyreactivity (PSR sort gate) | high polyreactivity |
| QVQLVESGGGLVQAGGSLRLSCAASGRIFRVNAMGWYRQAPGKERELVATITGSGGSTYYADSVKGRFTISRDNAKNTVHLQMNSLKPEDTAVYYCAVDRGRGSTYKYDYWGQGTQVTVSS | polyreactivity (PSR sort gate) | low polyreactivity |
| QVQLVESGGGLVQAGGSLRLSCAASGSISVVYDMGWYRQAPGTERELVAAIDWSGGSTYYADSVKGRFTISRDNAKNTVYLQMNSLKPEDTAVYYCAADDKVRYYWGQGTQVTVSS | polyreactivity (PSR sort gate) | low polyreactivity |
| QVQLVESGGGLVQAGGSLRLSCAASGSIFYRYVMGWYRQAPGKERELVAAITSDGSTNYADSVKGRFTISRDNAKNTVYLQMNSLKPEDTAVYYCNARSYRGRFDYWGQGTQVTVSS | polyreactivity (PSR sort gate) | low polyreactivity |
| QVQLVESGGGLVQAGGSLRLSCAASGFTFTENVMGWYRQAPGKEREFVAAITYIGGRTYYADSVKGRFTISRDNAKNTVYFQMNSLKPEDTAVYYCAADWAYYVDSYLYYTFDYWGQGTQVTVSS | polyreactivity (PSR sort gate) | low polyreactivity |
| QDQLVESGGGLVQAGGSLRLSCAASGSIFPNYAMGWYRQAPGKERELVAAISSSGGRTYYADSVKGRFTISRDNAKNTVYLQMNSLKPEDTAVYYCAADTYTSAQHEKYDYWGQGTQVTVSS | polyreactivity (PSR sort gate) | low polyreactivity |
| QVQLVESGGGLVQAGGSLRLSCAASGRTFVRYAMGWYRQAPGKERELVAAISLRGGRTYYADSVKGRFTISRDYANNTVYLQMNSRNPEDTAVYYCAARSYPTGASFDYWGQGTQVTVSS | polyreactivity (PSR sort gate) | high polyreactivity |
| QVQLVESGVGIVQAGRSHRVSCAASGSTYNPYAMGWYRQAPGKESELVARIRGSGGSTYYADSVKVRFTISRDNAKNPVFLHMNSQKPEDTAVYYCATDDYYLSRYRLVGYYSWGQGTQVTVSS | polyreactivity (PSR sort gate) | high polyreactivity |
| QVQLVESGGGLVQAGGSLRLSCAASGRTFWDYGMGWYRQAPGKDRELDATISGNGGDTYYADSVKGRFTISRDTAKNTVYLQMNSLKPEDTAVYYCAADYRFYRTDRHYDYWGQGTQVTVSS | polyreactivity (PSR sort gate) | low polyreactivity |
